Values were extracted from ChEMBL document CHEMBL4266004.

- Test system: Trypanosoma brucei brucei
- assay-overview: Antitrypanosomal activity against Trypanosoma brucei brucei 427 at 5 uM after 48 hrs by presto blue dye based fluorescence assay relative to control
- Type: functional
Binary label based on Activity with cut-off 20%: below gives 1 (yes), not below gives 0 (no).

Previously resolved entries follow.
{"columns": ["substance-smiles", "target-desc", "cat"],
 "data": [
  ["Fc1cccc(COc2ccc(Nc3ncnc4sc(C#CCN5CCOCC5)cc34)cc2Cl)c1", "Trypanosoma brucei brucei", "0 (no)"],
  ["CCOC(=O)CN(C)CC#Cc1cc2c(Nc3ccc(OCc4cccc(F)c4)c(Cl)c3)ncnc2s1", "Trypanosoma brucei brucei", "0 (no)"],
  ["CC(C)(C)OC(=O)N1CCC[C@H]1C#Cc1cc2ncnc(Nc3ccc(OCc4cccc(F)c4)c(Cl)c3)c2s1", "Trypanosoma brucei brucei", "0 (no)"],
  ["CC(C)(C)CC#Cc1cc2ncnc(Nc3ccc(OCc4cccc(F)c4)c(Cl)c3)c2s1", "Trypanosoma brucei brucei", "0 (no)"],
  ["Fc1cccc(COc2ccc(Nc3ncnc4ccc(C#CCN5CCOCC5)cc34)cc2Cl)c1", "Trypanosoma brucei brucei", "0 (no)"],
  ["COCC#Cc1cc2ncnc(Nc3ccc(OCc4cccc(F)c4)c(Cl)c3)c2s1", "Trypanosoma brucei brucei", "0 (no)"],
  ["CN(CC#Cc1cc2c(Nc3ccc(OCc4cccc(F)c4)c(Cl)c3)ncnc2s1)Cc1ccccc1", "Trypanosoma brucei brucei", "1 (yes)"],
  ["Fc1cccc(COc2ccc(Nc3ncnc4cc(C#CC5CCCC5)sc34)cc2Cl)c1", "Trypanosoma brucei brucei", "0 (no)"],
  ["Fc1cccc(COc2ccc(Nc3ncnc4ccc(C#CCN5CCSCC5)cc34)cc2Cl)c1", "Trypanosoma brucei brucei", "1 (yes)"],
  ["Fc1cccc(COc2ccc(Nc3ncnc4ccc(C#CC5CCCC5)cc34)cc2Cl)c1", "Trypanosoma brucei brucei", "1 (yes)"]
]}

Please find the next compound below.
Ask: Confirm or reject: Activity of COCC#Cc1cc2c(Nc3ccc(OCc4cccc(F)c4)c(Cl)c3)ncnc2s1 lies strictly below 20%
Result: 1 (yes)

---

- assay-overview: Cytotoxicity against mouse NIH/3T3 cells
- Type: cell-based, NIH3T3
- cond: read-out: TC50 (the source's name)
We begin with a simple list: items and their reported CC50.

Worked set:
{"columns": ["substance-smiles", "CC50"],
 "data": [
  ["COCC#Cc1cc2c(Nc3ccc(OCc4cccc(F)c4)c(Cl)c3)ncnc2s1", "1.7 µM"],
  ["Fc1cccc(COc2ccc(Nc3ncnc4cc(C#CCN5CCCC5)sc34)cc2Cl)c1", "6.4 µM"],
  ["CN1CCN(CC#Cc2cc3c(Nc4ccc(OCc5cccc(F)c5)c(Cl)c4)ncnc3s2)CC1", "6.7 µM"],
  ["Fc1cccc(COc2ccc(Nc3ncnc4cc(C#CC5CCCC5)sc34)cc2Cl)c1", "> 100 µM"]
]}

Now take the following molecule into account.
Ask: // CC50 lookup, key: COCC#Cc1cc2ncnc(Nc3ccc(OCc4cccc(F)c4)c(Cl)c3)c2s1
Result: > 50 µM

---

- assay-overview: Cytotoxicity against mouse NIH/3T3 cells
- Type: cell-based, NIH3T3
- cond: read-out: TC50 (the source's name)
measurement-name: CC50 (µM)
Use µM as the unit, but write only the number.

Worked set:
{"columns": ["substance-smiles", "CC50 (µM)"],
 "data": [
  ["CN(CC#Cc1cc2c(Nc3ccc(OCc4cccc(F)c4)c(Cl)c3)ncnc2s1)Cc1ccccc1", 2.5],
  ["Fc1cccc(COc2ccc(Nc3ncnc4cc(C#CCN5CCOCC5)sc34)cc2Cl)c1", 4.7]
]}

Now take the following molecule into account.
Ask: // CC50 lookup, key: CCOC(=O)CN(C)CC#Cc1cc2ncnc(Nc3ccc(OCc4cccc(F)c4)c(Cl)c3)c2s1
Result: 52
